Every entry's value here was drawn from patent US20260201064A1.

# assayed.system: T1, recombinant human ASM protein (human, UniProt P17405 47-630)
# T1 construct: Recombinant human ASM in solution; also called acid sphingomyelinase (ASM) protein
# T1 sequence: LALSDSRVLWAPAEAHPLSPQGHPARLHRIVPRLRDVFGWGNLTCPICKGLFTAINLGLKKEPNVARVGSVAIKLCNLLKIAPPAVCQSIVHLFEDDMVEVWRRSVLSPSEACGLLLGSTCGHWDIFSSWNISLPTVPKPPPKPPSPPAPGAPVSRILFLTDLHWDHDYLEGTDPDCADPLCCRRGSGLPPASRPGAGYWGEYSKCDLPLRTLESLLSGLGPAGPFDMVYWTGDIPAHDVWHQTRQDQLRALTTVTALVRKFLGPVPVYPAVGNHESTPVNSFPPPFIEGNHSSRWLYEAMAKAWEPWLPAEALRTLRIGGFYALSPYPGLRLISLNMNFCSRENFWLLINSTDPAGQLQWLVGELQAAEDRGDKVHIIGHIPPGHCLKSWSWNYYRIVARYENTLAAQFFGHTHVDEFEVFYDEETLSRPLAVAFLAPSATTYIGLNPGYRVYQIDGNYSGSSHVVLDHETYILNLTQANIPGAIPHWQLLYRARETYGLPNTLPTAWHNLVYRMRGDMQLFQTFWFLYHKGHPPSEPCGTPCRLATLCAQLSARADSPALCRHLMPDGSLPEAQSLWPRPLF
# method.summary: BLI (Octet), antibody on AHC sensor
property.name: Kd (nM)
Just the number in nM, nothing appended.

Below: 4 binders and their reported Kd.
#9104v-L39 (antibody, human IgG4 S228P, lambda, V domains shown, Full-length IgG, lambda) VH: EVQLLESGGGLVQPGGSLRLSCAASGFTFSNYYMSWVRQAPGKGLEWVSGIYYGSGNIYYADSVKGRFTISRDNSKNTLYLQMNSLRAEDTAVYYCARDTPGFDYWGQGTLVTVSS VL: QSVLTQPPSASGTPGQRVTISCTGSSSNIGNNAVNWYQQLPGTAPKLLIYYDSYRPGGVPDRFSGSKSGTSASLAISGLRSEDEADYYCGAWDYSLSAYVFGGGTKLTVLG: 1.52
#9104v-L64 (antibody, human IgG4 S228P, lambda, V domains shown, Full-length IgG, lambda) VH: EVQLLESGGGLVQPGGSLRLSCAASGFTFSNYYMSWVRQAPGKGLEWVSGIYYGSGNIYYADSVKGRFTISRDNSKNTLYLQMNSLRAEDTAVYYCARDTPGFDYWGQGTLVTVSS VL: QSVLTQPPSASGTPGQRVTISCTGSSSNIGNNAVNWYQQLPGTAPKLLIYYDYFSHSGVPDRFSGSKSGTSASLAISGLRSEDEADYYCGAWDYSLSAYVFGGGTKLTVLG: 0.505
#9104v-L47 (antibody, human IgG4 S228P, lambda, V domains shown, Full-length IgG, lambda) VH: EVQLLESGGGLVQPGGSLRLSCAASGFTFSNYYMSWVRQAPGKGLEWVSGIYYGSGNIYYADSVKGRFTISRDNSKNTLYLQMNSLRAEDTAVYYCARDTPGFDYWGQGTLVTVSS VL: QSVLTQPPSASGTPGQRVTISCTGSSSNIGNNAVNWYQQLPGTAPKLLIYYDSYTPSGVPDRFSGSKSGTSASLAISGLRSEDEADYYCGAWDYSLSAYVFGGGTKLTVLG: 1.41
#9104v-L25 (antibody, human IgG4 S228P, lambda, V domains shown, Full-length IgG, lambda) VH: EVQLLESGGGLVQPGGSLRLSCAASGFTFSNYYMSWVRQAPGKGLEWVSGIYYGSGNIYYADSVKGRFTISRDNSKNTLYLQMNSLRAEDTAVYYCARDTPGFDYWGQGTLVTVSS VL: QSVLTQPPSASGTPGQRVTISCTGSSSNIGNNAVNWYQQLPGTAPKLLIYYDSFPASGVPDRFSGSKSGTSASLAISGLRSEDEADYYCGAWDYSLSAYVFGGGTKLTVLG: 0.882

// next item, Kd requested
Qu. Let me know recorded Kd for #9104v-L46 (antibody, human IgG4 S228P, lambda, V domains shown, Full-length IgG, lambda) VH: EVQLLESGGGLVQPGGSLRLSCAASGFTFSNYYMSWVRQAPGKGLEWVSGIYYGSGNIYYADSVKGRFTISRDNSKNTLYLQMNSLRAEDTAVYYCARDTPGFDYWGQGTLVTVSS VL: QSVLTQPPSASGTPGQRVTISCTGSSSNIGNNAVNWYQQLPGTAPKLLIYYDSYRSWGVPDRFSGSKSGTSASLAISGLRSEDEADYYCGAWDYSLSAYVFGGGTKLTVLG , thanks.
Ans. 0.88
